Study System: T1, Human PD-1-His protein (Cat. #10377H08H, Sino Biological) (human, UniProt Q15116 25-167)
T1 construct: Bought protein; also called hPD-1-His; hu PD-1-his; not shown: His tag of the bought protein
T1 sequence (Q15116 25-167 limits assumed): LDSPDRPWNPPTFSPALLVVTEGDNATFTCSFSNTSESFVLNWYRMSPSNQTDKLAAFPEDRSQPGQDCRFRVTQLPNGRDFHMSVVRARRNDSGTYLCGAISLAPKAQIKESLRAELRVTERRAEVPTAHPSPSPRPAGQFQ
Assay Protocol: SPR (Biacore), antibody captured on Protein A chip, PD-1 in flow
Parameter Kd: see the listing below.
Your answer is read as nM, so omit the unit and give the number.

Hu32a-71.IgG4AA (antibody, V domains shown, Full-length IgG4-AA, kappa) VH: EVQLVQSGAEVKKPGSSVKVSCKASDFTFTDYEIHWVRQAPGQGLEWIGLFDPETGGIVYNQKFKGRATLTADKSTSTAYMEFSSLRSEDTAVYYCTREGYNRDWYFDVWGQGTTVTVSS VL: DIVMTQTPLSLPVTPGEPASISCRSSQSLVHSTGNTYLEWYLQKPGQSPQLLIYKVSNRFSGVPDRFSGSGSGTDFTLKISRVEAEDVGVYYCFQGSHVPYTFGGGTKVEIKR	4.61

Continue with the binder presented below.
Query :: Give the measured Kd of Hu23-13.IgG4AA (antibody, V domains shown, Full-length IgG4-AA, kappa; also called Hu23LCDR1 (G29A)) VH: EVQLVQSGAEVKKPGSSVKVSCKASGGTFSDYEMHWVRQAPGQGLEWMGLIDPETGGTVYNQKFKDRVTITADKSTSTAYMELSSLRSEDTAVYYCARERFSYYGSTSDWYFDVWGQGTTVTVSS VL: DIVMTQTPLSLPVTPGEPASISCRSSQSLVHSNANTYLEWYLQKPGQSPQLLIYKVSNRFSGVPDRFSGSGSGTDFTLKISRVEAEDVGVYYCFQGSHVPYTFGGGTKVEIKR .
Result :: 2.88
